Test system: DU-145 prostate
assay.notes: NCI-60 one-dose screen, 48 h (100 = growth as untreated, 0 = no growth, -100 = all killed)
run.conditions: 10 µM unless noted
Compounds without any hit were thinned out: in the full panel of roughly 83,000, 20% have a hit. Active and inactive are the calls of the source. How the source made its calls: active means growth percent below 10; inactive means the rest.

{"molecule": "CCCCCCCCCCCC(=O)NC(C)(C)C(=O)N1CCCC1C(=O)NC(C)(C)C(=O)NC(C)(C)C(=O)N1CCCC1C(=O)NC(C)(C)C(=O)NC(C)(C)C(=O)N1CCCC1C(=O)NC(C)C(=O)NCCC(=O)NC(C)C(=O)NC(C)(C)C(=O)NC(C)(C)C(=O)NC(C)(C)C(=O)NCCC(=O)NC(C)(C)C(=O)NC(C)(C)C(=O)NC(C)(C)C(=O)NC(C)C(=O)NCCC(=O)O (stereo unspecified)", "growth": "-99.4% (active)"}
{"molecule": "O=C(Nc1ccc(N2CCOCC2)cc1)Nc1ccc2c(ccn2C(=O)c2cccc(F)c2)c1", "growth": "60.2% (inactive)"}
{"molecule": "CC(=O)c1cc(C(=O)N2c3ccccc3Sc3ccccc32)n2c1ccc1ccccc12", "growth": "75% (inactive)"}
{"molecule": "C#Cc1cc(OC)c(C(=O)Nc2ccc(F)cc2C(=O)Nc2cccc(S(=O)(=O)C(F)(F)F)c2)cn1", "growth": "46.8% (inactive)"}
{"molecule": "NC(=O)c1ncn2c(=O)n(CCF)nnc12", "growth": "38.6% (inactive)"}
{"molecule": "O=C(Nc1cccc(C(F)(F)F)c1)N1CCN(c2cc(-c3cn(-c4ccccc4)nc3-c3cccc(O)c3)ccn2)CC1", "growth": "61.2% (inactive)"}
{"molecule": "CC(C)Sc1nc(-c2ccccc2)c(C#N)c(N2CCOCC2)n1", "growth": "83.1% (inactive)"}
{"molecule": "COc1ccc(C2CC(c3cccc(OCCCCOc4cccc(C5=NOC(c6ccc(OC)cc6)C5)c4)c3)=NO2)cc1 (stereo unspecified)", "growth": "104% (inactive)"}
{"molecule": "COc1cc(C(=O)c2cc(C(C)=O)c3cccc(C)n23)cc(OC)c1OC", "growth": "68.3% (inactive)"}
{"molecule": "CC(C)[C@H]1c2[nH]c3ccccc3c2C[C@H]2C(=O)N(CCCCCCC(=O)NO)CC(=O)N12", "growth": "92.4% (inactive)"}
{"molecule": "COc1ccc(C2C(C#N)=C(/N=C/c3ccc(Cl)cc3)Oc3c2sc2c(C)cccc32)cc1 (stereo unspecified)", "growth": "26.1% (inactive)"}
{"molecule": "CCCCOc1ccc(S(=O)(=O)N2CCN(c3nc(C)cc(N4CCOCC4)n3)CC2)cc1", "growth": "16.6% (inactive)"}
{"molecule": "CC(=O)C1=C(C)NC(NNc2ccccc2)=NC1c1ccc([N+](=O)[O-])cc1 (stereo unspecified)", "growth": "99.4% (inactive)"}
{"molecule": "NC(=S)n1c(=O)n(-c2cccc(C(F)(F)F)c2)c(=O)c2cc(-c3ccc(F)cc3F)ccc21", "growth": "24.5% (inactive)"}
{"molecule": "COc1ccc(/C=N/N=C(/c2ccccc2)c2ccc3nc(-c4ccc(Cl)cc4)[nH]c3c2)cc1", "growth": "86.5% (inactive)"}
{"molecule": "CCN(CC)c1ccc(/C=N/NC(=O)c2ccc(NS(C)(=O)=O)cc2)cc1", "growth": "37.9% (inactive)"}
{"molecule": "NC(=O)c1c(NC(=O)c2ccc(C(F)(F)F)cc2)sc2c1CCC(=O)C2", "growth": "59% (inactive)"}
{"molecule": "Cc1ccc(-c2nc(SCC(=O)c3ccccc3)nc(Nc3ccc(S(N)(=O)=O)cc3)c2C#N)cc1", "growth": "60.7% (inactive)"}
{"molecule": "O=C(/C=C/c1csc(Br)n1)NO", "growth": "25% (inactive)"}
{"molecule": "C=C(C)[C@@H]1CC[C@]2(COCCCNCCCN)CC[C@]3(C)[C@H](CC[C@@H]4[C@@]5(C)CC[C@H](O)C(C)(C)[C@@H]5CC[C@]43C)[C@@H]12", "growth": "-80.8% (active)"}
{"molecule": "CN(C)CCNc1ccc2ncc(C#Cc3cncc(C(=O)Nc4ccc(CN5CCN(C)CC5)c(C(F)(F)F)c4)c3)n2n1", "growth": "18.9% (inactive)"}
